Collected logP values appear next to each entry.
Would you mind answering with just the numeric figure?

Substance smiles: O=C(O)CCC1=NS(=O)(=O)c2cc(Cl)c(Cl)cc2N1
logP: 1.5

Report measured logP; entry is O=C(O)CCSC1=NS(=O)(=O)c2ccccc2N1
0.66

Please give measured logP of the following entry: Cc1ccc2c(c1)NC(CCC(=O)O)=NS2(=O)=O
0.16

Consider the compound O=C(O)CSC1=NS(=O)(=O)c2cc(Cl)cc(Cl)c2N1 and give its recorded logP.
1.09

Determine its reported logP: O=C(O)CCSC1=NS(=O)(=O)c2cc(Cl)cc(Cl)c2N1
1.79

Identify logP associated with the compound O=C(O)CCSC1=NS(=O)(=O)c2ccc(Cl)cc2N1
1.6

State its logP for this compound: O=C(O)CCC1=NS(=O)(=O)c2ccc(Cl)cc2N1
0.72

Identify measured logP corresponding to O=C(O)CSC1=NS(=O)(=O)c2ccc(Cl)c(Cl)c2N1
1.1

Specify reported logP for the compound shown: O=C(O)CCCC1=NS(=O)(=O)c2ccc(Cl)cc2N1
0.83

State its logP for this compound: O=C(O)CCCC1=NS(=O)(=O)c2cc(Br)ccc2N1
1.02

Give reported logP value for O=C(O)CCCC1=NS(=O)(=O)c2cc(Cl)cc(Cl)c2N1
1.22

// fetch logP given entry O=C(O)CCCC1=NS(=O)(=O)c2cc(Br)cc(Br)c2N1
1.51

Kindly indicate its recorded logP. Item: O=C(O)CCC1=NS(=O)(=O)c2ccc(C(F)(F)F)cc2N1
1.3

====

Reported endpoint: logP
Respond using a number only.

In the examples that follow, each entry is paired with its recorded logP.
Substance smiles: O=C(O)CCSC1=NS(=O)(=O)c2cc(Cl)c(Cl)cc2N1
Data value: 1.81
//
Substance smiles: O=C(O)CCCC1=NS(=O)(=O)c2ccc(C(F)(F)F)cc2N1
Data value: 1.24
//
Substance smiles: O=C(O)CCSC1=NS(=O)(=O)c2ccc(C(F)(F)F)cc2N1
Data value: 1.96
//
Substance smiles: O=C(O)CCSC1=NS(=O)(=O)c2cc(Cl)ccc2N1
Data value: 1.43
//
Substance smiles: O=C(O)CSC1=NS(=O)(=O)c2ccc(C(F)(F)F)cc2N1
Data value: 1.62

// fetch logP given entry Cc1ccc2c(c1)NC(SCC(=O)O)=NS2(=O)=O
0.7

====

Below, each entry is listed alongside its reported logP.
Give only the figure.

Past entries and their recorded results:
Substance smiles: O=C(O)CSC1=NS(=O)(=O)c2ccccc2N1
Data value: 0.18

Substance smiles: O=C(O)CCC1=NS(=O)(=O)c2cc(Cl)cc(Cl)c2N1
Data value: 1.04

Substance smiles: O=C(O)CCC1=NS(=O)(=O)c2ccccc2N1
Data value: -0.18

Substance smiles: O=C(O)CSC1=NS(=O)(=O)c2cc(Br)cc(Br)c2N1
Data value: 1.16

Substance smiles: O=C(O)CCC1=NS(=O)(=O)c2cc(Br)ccc2N1
Data value: 0.93

Report logP, nothing else, for this compound: O=C(O)CCC1=NS(=O)(=O)c2cc(Cl)ccc2N1
0.69

In one line, give reported logP of the entry COc1ccc2c(c1)NC(CCCC(=O)O)=NS2(=O)=O .
0.12

Answer with the recorded logP of O=C(O)CSC1=NS(=O)(=O)c2ccc(Cl)cc2N1 only.
0.82
